# reported relative viability; entries follow
System: PC-14
Experiment: relative viability (nuclei count vs DMSO), 5 days (fraction); higher = more cells survive
Conditions: first compound 1 µM
Give the figure by itself; no unit, no explanation.

NC(=O)Nc1cc(-c2cccc(F)c2)sc1C(=O)N[C@H]1CCCNC1 [AZD7762] + CC(C)C[C@H](NC(=O)[C@H](Cc1ccccc1)NC(=O)c1cnccn1)B(O)O [Bortezomib] (partner 0.002 µM) :: 0.357
NC(=O)Nc1cc(-c2cccc(F)c2)sc1C(=O)N[C@H]1CCCNC1 [AZD7762] + N=C(N)NC(=N)NCCc1ccccc1 [Phenformin] (partner 250 µM) :: 0.213
NC(=O)Nc1cc(-c2cccc(F)c2)sc1C(=O)N[C@H]1CCCNC1 [AZD7762] + Nc1nc2[nH]cc(CCc3ccc(C(=O)N[C@@H](CCC(=O)O)C(=O)O)cc3)c2c(=O)[nH]1 [Pemetrexed] (partner 0.2 µM) :: 0.0517

Incoming: Endpoint output: relative viability of NC(=O)Nc1cc(-c2cccc(F)c2)sc1C(=O)N[C@H]1CCCNC1 [AZD7762] + O=C(CCCCCCC(=O)Nc1ccccc1)NO [Vorinostat] (partner 1 µM) . Value?
Outgoing: 0.0419

Incoming: Endpoint output: relative viability of NC(=O)Nc1cc(-c2cccc(F)c2)sc1C(=O)N[C@H]1CCCNC1 [AZD7762] + COc1cc2c(Oc3ccc(NC(=O)C4(C(=O)Nc5ccc(F)cc5)CC4)cc3F)ccnc2cc1OCCCN1CCOCC1 [Foretinib] (partner 0.25 µM) . Value?
Outgoing: 0.361

Incoming: Endpoint output: relative viability of NC(=O)Nc1cc(-c2cccc(F)c2)sc1C(=O)N[C@H]1CCCNC1 [AZD7762] + Cc1nc(NC(=O)N2CCC[C@H]2C(N)=O)sc1-c1ccnc(C(C)(C)C(F)(F)F)c1 [Alpelisib] (partner 2 µM) . Value?
Outgoing: 0.392

Incoming: Endpoint output: relative viability of NC(=O)Nc1cc(-c2cccc(F)c2)sc1C(=O)N[C@H]1CCCNC1 [AZD7762] + Nc1ncn([C@H]2C[C@H](O)[C@@H](CO)O2)c(=O)n1 [Decitabine] (partner 2 µM) . Value?
Outgoing: 0.0898

---

Test system: NCI-H460
Experiment: relative viability (nuclei count vs DMSO), 5 days (fraction); higher = more cells survive
Conditions: first compound 0.03162 µM
recordedEndpoint: relative viability
Give the figure by itself; no unit, no explanation.

Here's what some known entries look like.
NC(=O)Nc1cc(-c2cccc(F)c2)sc1C(=O)N[C@H]1CCCNC1 [AZD7762] + COc1cccc2cc(-c3nc([C@H]4CC[C@H](C(=O)O)CC4)n4ncnc(N)c34)[nH]c12 [OSI-027] (partner 0.5 µM) :: 0.751
NC(=O)Nc1cc(-c2cccc(F)c2)sc1C(=O)N[C@H]1CCCNC1 [AZD7762] + C[C@]1(O)C[C@@H](c2nc(-c3ccc4ccc(-c5ccccc5)nc4c3)c3c(N)nccn32)C1 [Linsitinib] (partner 1 µM) :: 0.727

Incoming: Can you look up relative viability on NCI-H460 for NC(=O)Nc1cc(-c2cccc(F)c2)sc1C(=O)N[C@H]1CCCNC1 [AZD7762] + C[C@@H](Oc1cc(-c2cnn(C3CCNCC3)c2)cnc1N)c1c(Cl)ccc(F)c1Cl [Crizotinib] (partner 1 µM) ?
Outgoing: 0.879

Incoming: Can you look up relative viability on NCI-H460 for NC(=O)Nc1cc(-c2cccc(F)c2)sc1C(=O)N[C@H]1CCCNC1 [AZD7762] + CC(C)C[C@H](NC(=O)[C@H](Cc1ccccc1)NC(=O)c1cnccn1)B(O)O [Bortezomib] (partner 0.002 µM) ?
Outgoing: 1.04

---

Tested on: NCI-H322M
Assay: relative viability (nuclei count vs DMSO), 5 days (fraction); higher = more cells survive
Details: first compound 0.01 µM
recordedEndpoint: relative viability
Give the figure by itself; no unit, no explanation.

NC(=O)Nc1cc(-c2cccc(F)c2)sc1C(=O)N[C@H]1CCCNC1 [AZD7762] + CS(=O)(=O)CCNCc1ccc(-c2ccc3ncnc(Nc4ccc(OCc5cccc(F)c5)c(Cl)c4)c3c2)o1 [Lapatinib] (partner 2 µM) :: 0.627

Incoming: Endpoint output: relative viability of NC(=O)Nc1cc(-c2cccc(F)c2)sc1C(=O)N[C@H]1CCCNC1 [AZD7762] + CC(=O)c1c(C)c2cnc(Nc3ccc(N4CCNCC4)cn3)nc2n(C2CCCC2)c1=O [Palbociclib] (partner 0.5 µM) . Value?
Outgoing: 0.477

Incoming: Endpoint output: relative viability of NC(=O)Nc1cc(-c2cccc(F)c2)sc1C(=O)N[C@H]1CCCNC1 [AZD7762] + Cc1nc(NC(=O)N2CCC[C@H]2C(N)=O)sc1-c1ccnc(C(C)(C)C(F)(F)F)c1 [Alpelisib] (partner 2 µM) . Value?
Outgoing: 0.776

Incoming: Endpoint output: relative viability of NC(=O)Nc1cc(-c2cccc(F)c2)sc1C(=O)N[C@H]1CCCNC1 [AZD7762] + C[C@@H](Oc1cc(-c2cnn(C3CCNCC3)c2)cnc1N)c1c(Cl)ccc(F)c1Cl [Crizotinib] (partner 1 µM) . Value?
Outgoing: 1.04

Incoming: Endpoint output: relative viability of NC(=O)Nc1cc(-c2cccc(F)c2)sc1C(=O)N[C@H]1CCCNC1 [AZD7762] + CC1(C)CCC(c2ccc(Cl)cc2)=C(CN2CCN(c3ccc(C(=O)NS(=O)(=O)c4ccc(N[C@H](CCN5CCOCC5)CSc5ccccc5)c(S(=O)(=O)C(F)(F)F)c4)cc3)CC2)C1 [Navitoclax] (partner 0.5 µM) . Value?
Outgoing: 1.14

---

Tested on: SK-MES-1
Test: relative viability (nuclei count vs DMSO), 5 days (fraction); higher = more cells survive
Conditions: first compound 0.08 µM
recordedEndpoint: relative viability
Give the figure by itself; no unit, no explanation.

Oc1nc(-c2ccc(C(F)(F)F)cc2)nc2c1CSCC2 [XAV939] + Cc1nc(NC(=O)N2CCC[C@H]2C(N)=O)sc1-c1ccnc(C(C)(C)C(F)(F)F)c1 [Alpelisib] (partner 2 µM) :: 0.994

Incoming: Endpoint output: relative viability of Oc1nc(-c2ccc(C(F)(F)F)cc2)nc2c1CSCC2 [XAV939] + CCNC(=O)c1noc(-c2cc(C(C)C)c(O)cc2O)c1-c1ccc(CN2CCOCC2)cc1 [Luminespib] (partner 0.01 µM) . Value?
Outgoing: 0.915

---

# reported relative viability; entries follow
Test system: EKVX
Test: relative viability (nuclei count vs DMSO), 5 days (fraction); higher = more cells survive
Conditions: first compound 0.1265 µM

Incoming: Can you look up relative viability on EKVX for O=C(O)c1ccc(-c2c[nH]c3ncc(-c4ccccc4)cc23)cc1C1CCCC1 + O=C(c1cc(Cc2n[nH]c(=O)c3ccccc23)ccc1F)N1CCN(C(=O)C2CC2)CC1 [Olaparib] (partner 8 µM) ?
Outgoing: 0.931

Incoming: Can you look up relative viability on EKVX for O=C(O)c1ccc(-c2c[nH]c3ncc(-c4ccccc4)cc23)cc1C1CCCC1 + CC1(C)CCC(c2ccc(Cl)cc2)=C(CN2CCN(c3ccc(C(=O)NS(=O)(=O)c4ccc(N[C@H](CCN5CCOCC5)CSc5ccccc5)c(S(=O)(=O)C(F)(F)F)c4)cc3)CC2)C1 [Navitoclax] (partner 0.5 µM) ?
Outgoing: 0.967

Incoming: Can you look up relative viability on EKVX for O=C(O)c1ccc(-c2c[nH]c3ncc(-c4ccccc4)cc23)cc1C1CCCC1 + COc1cccc2cc(-c3nc([C@H]4CC[C@H](C(=O)O)CC4)n4ncnc(N)c34)[nH]c12 [OSI-027] (partner 0.5 µM) ?
Outgoing: 0.828

---

Tested on: NCI-H727
Test: relative viability (nuclei count vs DMSO), 5 days (fraction); higher = more cells survive
Conditions: first compound 2.53 µM
recordedEndpoint: relative viability
Give the figure by itself; no unit, no explanation.

C=C1C(=O)O[C@@H](CCCCCCCC)[C@@H]1C(=O)O [C-75] + O=C(CCCCCCC(=O)Nc1ccccc1)NO [Vorinostat] (partner 1 µM) :: 1.18

Incoming: Endpoint output: relative viability of Oc1nc(-c2ccc(C(F)(F)F)cc2)nc2c1CSCC2 [XAV939] + O=C(c1cc(Cc2n[nH]c(=O)c3ccccc23)ccc1F)N1CCN(C(=O)C2CC2)CC1 [Olaparib] (partner 8 µM) . Value?
Outgoing: 0.678

Incoming: Endpoint output: relative viability of Oc1nc(-c2ccc(C(F)(F)F)cc2)nc2c1CSCC2 [XAV939] + CC(C)C[C@H](NC(=O)[C@H](Cc1ccccc1)NC(=O)c1cnccn1)B(O)O [Bortezomib] (partner 0.002 µM) . Value?
Outgoing: 0.957

Incoming: Endpoint output: relative viability of Oc1nc(-c2ccc(C(F)(F)F)cc2)nc2c1CSCC2 [XAV939] + O=C(CCCCCCC(=O)Nc1ccccc1)NO [Vorinostat] (partner 1 µM) . Value?
Outgoing: 1.02

Incoming: Endpoint output: relative viability of C=C1C(=O)O[C@@H](CCCCCCCC)[C@@H]1C(=O)O [C-75] + Nc1ncn([C@H]2C[C@H](O)[C@@H](CO)O2)c(=O)n1 [Decitabine] (partner 2 µM) . Value?
Outgoing: 0.767
